- System: Hymenolepis nana
- Experiment notes: Test for anthelminthics, cestodes (Hymenolepis nana)
- Assay type: in vivo
- Condition: number of subjects 10
Measurement name: Percentage of activity (%)
Field format: number, assumed %, no unit text.

Query: What value of Percentage of activity has been recorded for this entry: O=C(COc1cc(C(F)(F)F)cc(C(F)(F)F)c1)Nc1ncc([N+](=O)[O-])s1 [PH 6167]
Reply: 70

Query: What value of Percentage of activity has been recorded for this entry: O=C(COc1c(F)c(F)c(F)c(F)c1F)Nc1ncc([N+](=O)[O-])s1 [PH 6168]
Reply: 20

Query: What value of Percentage of activity has been recorded for this entry: Cc1cc(Cl)c(OCC(=O)Nc2ncc([N+](=O)[O-])s2)cc1C [PH 6305]
Reply: 0

Query: What value of Percentage of activity has been recorded for this entry: Cc1cc(OCC(=O)Nc2ncc([N+](=O)[O-])s2)c(C(C)C)cc1Cl [PH 6099]
Reply: 40

Query: What value of Percentage of activity has been recorded for this entry: O=C(COc1ccc(F)cc1)Nc1ncc([N+](=O)[O-])s1 [PH 6160]
Reply: 0

Query: What value of Percentage of activity has been recorded for this entry: O=C(COc1ccc(Br)cc1)Nc1ncc([N+](=O)[O-])s1 [PH 6092]
Reply: 10

Query: What value of Percentage of activity has been recorded for this entry: Cc1cc(OCC(=O)Nc2ncc([N+](=O)[O-])s2)ccc1Cl [PH 6314]
Reply: 0

Query: What value of Percentage of activity has been recorded for this entry: O=C(COc1cc(Cl)ccc1Cl)Nc1ncc([N+](=O)[O-])s1 [PH 6159]
Reply: 20

Query: What value of Percentage of activity has been recorded for this entry: O=C(COc1ccc(Cl)cc1Cl)Nc1ncc([N+](=O)[O-])s1 [PH 6091]
Reply: 30

Query: What value of Percentage of activity has been recorded for this entry: O=C(COc1ccc(Cl)cc1)Nc1ncc([N+](=O)[O-])s1 [PH 5927]
Reply: 0

----------
Measurement name: MIC (µg/mL)
Field format: number, assumed µg/mL, no unit text.

Query: Recorded MIC for O=C(COc1ccc(F)cc1)Nc1ncc([N+](=O)[O-])s1 with Epidermo flocosum, please?
Reply: 1

Query: Recorded MIC for O=C(COc1ccc(Cl)cc1)Nc1ncc([N+](=O)[O-])s1 with Epidermo flocosum, please?
Reply: 10

Query: Recorded MIC for O=C(COc1c(F)c(F)c(F)c(F)c1F)Nc1ncc([N+](=O)[O-])s1 with Epidermo flocosum, please?
Reply: 1

Query: Recorded MIC for O=C(COc1cc(C(F)(F)F)cc(C(F)(F)F)c1)Nc1ncc([N+](=O)[O-])s1 with Epidermo flocosum, please?
Reply: 1

Query: Recorded MIC for O=C(COc1ccc(Cl)cc1Cl)Nc1ncc([N+](=O)[O-])s1 with Epidermo flocosum, please?
Reply: 1

----------
- Tested on: Hymenolepis nana
- Experiment notes: Test for anthelminthics, cestodes (Hymenolepis nana)
- Type: in vivo
- Condition: number of subjects 10
For each entry below, report its Number of subjects from which the parasite has been eradicated (D) value.
Would you mind answering with just the numeric figure?

Query: What value of Number of subjects from which the parasite has been eradicated (D) has been recorded for this entry: Cc1cc(OCC(=O)Nc2ncc([N+](=O)[O-])s2)c(C(C)C)cc1Cl [PH 6099]
Reply: 4

Query: What value of Number of subjects from which the parasite has been eradicated (D) has been recorded for this entry: O=C(COc1ccc(Cl)cc1)Nc1ncc([N+](=O)[O-])s1 [PH 5927]
Reply: 0

Query: What value of Number of subjects from which the parasite has been eradicated (D) has been recorded for this entry: O=C(COc1cc(C(F)(F)F)cc(C(F)(F)F)c1)Nc1ncc([N+](=O)[O-])s1 [PH 6167]
Reply: 7

Query: What value of Number of subjects from which the parasite has been eradicated (D) has been recorded for this entry: O=C(COc1ccc(F)cc1)Nc1ncc([N+](=O)[O-])s1 [PH 6160]
Reply: 0

Query: What value of Number of subjects from which the parasite has been eradicated (D) has been recorded for this entry: O=C(COc1ccc(Cl)cc1Cl)Nc1ncc([N+](=O)[O-])s1 [PH 6091]
Reply: 3
